SYSTEM: Bromodomain-containing protein 4 (Homo sapiens)
ASSAY NAME: Inhibition of human his tagged BRD4-BD2 using Histone H4 peptide (1-21) K5/8/12/16Ac as substrate preincubated for 30 mins followed by addition of biotinylated peptide and measured after 30 mins by Alphascreen assay
pIC50: −log10 of the molar value.
PROPERTY: pIC50

Asked: Suppose we examine the compound Cc1ccc(C(C)C)cc1Oc1nccc(-c2c(-c3ccc(C(F)(F)F)cc3)ncn2C2CCN(CCO)CC2)n1 ; what pIC50 value has been reported?
Given back: < 5.00

---

SYSTEM: Bromodomain-containing protein 4 (Homo sapiens, UniProt O60885)
ASSAY NAME: Inhibition of his9-tagged BRD4-BD1 (unknown origin) preincubated for 30 mins followed by addition of biotinylated peptide and measured after 30 mins by Alphascreen assay
PROPERTY: IC50 (nM)
Report only the number, with the unit nM understood.

Asked: What reported IC50 corresponds to Cc1ccc(C(C)C)cc1Oc1nccc(-c2c(-c3ccc(C(F)(F)F)cc3)ncn2C2CCN(CCO)CC2)n1 on Bromodomain-containing protein 4 (Homo sapiens, UniProt O60885)?
Given back: 111

---

System: Mus musculus
ASSAY NAME: Antiinflammatory activity against APAP-induced C57BL/6J mouse liver injury model assessed as reduction in Ly6G expression at 30 mg/kg, po preincubated for 1 hr followed by APAP stimulation and measured after 8 hrs by qPCR analysis
Type: functional, organism-based
MEASUREMENT SETUP: time 9.0 hrs
The source made the active and inactive calls. No cut-off for these calls is given here.
Please answer using one outcome listed in active, inactive

# count of solved cases: 3
Cc1ccc(C(C)C)cc1Oc1nccc(-c2c(-c3ccc(C(F)(F)F)cc3)ncn2C2CCN(CCO)CC2)n1 : inactive
Cc1cc(C)cc(Oc2cccc(-c3c(C)nnn3C3CCN(CCN(C)C)CC3)n2)c1 : active
COc1cc2c(cc1-c1c(C)noc1C)ncc1[nH]c(=O)n([C@H](C)c3ccccn3)c12 : active

Query compound follows.
Asked: Record lookup: outcome of this test for Cc1ccc(C(C)C)cc1Oc1nccc(-c2c(-c3ccc(C(F)(F)F)cc3)ncn2C2CCNCC2)n1 ?
Given back: active

---

SYSTEM: Bromodomain-containing protein 4 (Homo sapiens, UniProt O60885)
ASSAY NAME: Inhibition of N-luc fused BRD4-BD1 in HEK293T cells using NanoGlo substrate as substrate incubated for 2 hrs by NanoBRET assay
PROPERTY: EC50 (nM)
Write the value in nM as a bare number.

Asked: Name the recorded EC50 for Cc1ccc(C(C)C)cc1Oc1nccc(-c2c(-c3ccc(C(F)(F)F)cc3)ncn2C2CCN(CCO)CC2)n1 .
Given back: 2450

---

As shown below, each of these compounds has a reported half-life value.
ASSAY NAME: Metabolic stability in mouse liver microsomes assessed as half life […] measured after 60 mins in presence of NADPH by LC-MS/MS analysis
Assay type: ADME, Microsome
Form entry: value (h) — number only.

Cc1ccc(C(C)C)cc1Oc1nccc(-c2c(-c3ccc(C(F)(F)F)cc3)ncn2C2CCN(CCO)CC2)n1 : 1.29

Below: the item to evaluate.
Asked: Consider the compound shown here: Cc1ccc(C(C)C)cc1Oc1nccc(-c2c(-c3ccc(C(F)(F)F)cc3)ncn2C2CCNCC2)n1 What is its recorded half-life?
Given back: 3.45

---

Test system: Mus musculus
ASSAY NAME: Antiinflammatory activity against APAP-induced C57BL/6J mouse liver injury model assessed as reduction in Cxcl2 expression at 30 mg/kg, po preincubated for 1 hr followed by APAP stimulation and measured after 8 hrs by qPCR analysis
Assay type: functional, organism-based
MEASUREMENT SETUP: time 9.0 hrs
Activity calls are given as the source filed them. The calls are words filed in the database; no cut-off is given here.
Outcome field: choose from active, inactive

Known results for compounds:
Cc1ccc(C(C)C)cc1Oc1nccc(-c2c(-c3ccc(C(F)(F)F)cc3)ncn2C2CCNCC2)n1 : active
CC(=O)Nc1c(F)cc(C(=O)N[C@H]2CC[C@H](O)CC2)cc1O[C@@H](C)c1ccccc1 : inactive
COc1cc2c(cc1-c1c(C)noc1C)ncc1[nH]c(=O)n([C@H](C)c3ccccn3)c12 : active
Cc1ccc(C(C)C)cc1Oc1nccc(-c2c(-c3ccc(C(F)(F)F)cc3)ncn2C2CCN(CCO)CC2)n1 : inactive

Now consider a different compound.
Asked: Record request — test call for Cc1cc(C)cc(Oc2cccc(-c3c(C)nnn3C3CCN(CCN(C)C)CC3)n2)c1
Given back: active

---

SYSTEM: Bromodomain-containing protein 4 (Homo sapiens, UniProt O60885)
ASSAY NAME: Binding affinity to N-luc fused BRD4-BD1 in HEK293T cells assessed as apparent inhibition constant using NanoGlo substrate as substrate incubated for 2 hrs by NanoBRET assay
MEASUREMENT SETUP: read-out: Ki(app)
PROPERTY: Ki (nM)
Numeric only. Scale: nM

Asked: Ki for Cc1ccc(C(C)C)cc1Oc1nccc(-c2c(-c3ccc(C(F)(F)F)cc3)ncn2C2CCN(CCO)CC2)n1 ?
Given back: 936

---

Cmax values by entry
ASSAY NAME: Cmax in male C57BL6 mouse plasma at 10 mg/kg, ip measured up to 24 hrs by LC-MS/MS analysis
Format: ADME, organism-based
Write down the numeric answer in nM and omit the unit.

Cc1ccc(C(C)C)cc1Oc1nccc(-c2c(-c3ccc(C(F)(F)F)cc3)ncn2C2CCN(CCO)CC2)n1 : 1050
Cc1cc(C)cc(Oc2cccc(-c3c(C)nnn3C3CCN(CCN(C)C)CC3)n2)c1 : 430

Please find the next compound below.
Asked: Field request: Cmax | item: Cc1ccc(C(C)C)cc1Oc1nccc(-c2c(-c3ccc(C(F)(F)F)cc3)ncn2C2CCNCC2)n1
Given back: 1800

---

ASSAY NAME: Toxicity in mouse Megakaryocyte cells assessed as reduction in thrombocytopenia risk by CFU-MK Assay
Type: cell-based
MEASUREMENT SETUP: megakaryocyte
pEC50: −log10 of the molar value.
So basically: pEC50 at 6 or higher? That is Yes. Lower than 6? That is No.

CC(=O)Nc1c(F)cc(C(=O)N[C@H]2CC[C@H](O)CC2)cc1O[C@@H](C)c1ccccc1 [GSK046] : Yes
Cc1ccc(C(C)C)cc1Oc1nccc(-c2c(-c3ccc(C(F)(F)F)cc3)ncn2C2CCN(CCO)CC2)n1 : No

Next item in the queue.
Asked: Kindly determine if pEC50 recorded for Cc1cc(C)cc(Oc2cccc(-c3c(C)nnn3C3CCN(CCN(C)C)CC3)n2)c1 is above or exactly 6.
Given back: Yes

---

ASSAY NAME: Apparent oral clearance in male C57BL6 mouse plasma at 10 mg/kg, ip measured up to 24 hrs by LC-MS/MS analysis
Format: ADME, organism-based
MEASUREMENT SETUP: male, C57BL6, mouse, plasma, read-out: CL/F (converted)
Collected CL/F values appear next to each entry.
Provide only the numeric value, understood in mL/min/kg.

Asked: Would you kindly share the measured CL/F for Cc1cc(C)cc(Oc2cccc(-c3c(C)nnn3C3CCN(CCN(C)C)CC3)n2)c1 ?
Given back: 470

Asked: If you can, please state the reported CL/F value of Cc1ccc(C(C)C)cc1Oc1nccc(-c2c(-c3ccc(C(F)(F)F)cc3)ncn2C2CCN(CCO)CC2)n1 .
Given back: 65

---

ASSAY NAME: Half life in male C57BL6 mouse liver at 10 mg/kg, ip measured up to 24 hrs by LC-MS/MS analysis
Assay type: ADME, organism-based
MEASUREMENT SETUP: male, C57BL6, mouse, liver
PROPERTY: half-life (h)
Please respond with the number in h and leave the unit unwritten.

Cc1cc(C)cc(Oc2cccc(-c3c(C)nnn3C3CCN(CCN(C)C)CC3)n2)c1 : 2.3

Asked: Query: half-life; subject: Cc1ccc(C(C)C)cc1Oc1nccc(-c2c(-c3ccc(C(F)(F)F)cc3)ncn2C2CCN(CCO)CC2)n1
Given back: 3.4

---

SYSTEM: Bromodomain-containing protein 2 (Homo sapiens)
Sequence (P25440 whole entry): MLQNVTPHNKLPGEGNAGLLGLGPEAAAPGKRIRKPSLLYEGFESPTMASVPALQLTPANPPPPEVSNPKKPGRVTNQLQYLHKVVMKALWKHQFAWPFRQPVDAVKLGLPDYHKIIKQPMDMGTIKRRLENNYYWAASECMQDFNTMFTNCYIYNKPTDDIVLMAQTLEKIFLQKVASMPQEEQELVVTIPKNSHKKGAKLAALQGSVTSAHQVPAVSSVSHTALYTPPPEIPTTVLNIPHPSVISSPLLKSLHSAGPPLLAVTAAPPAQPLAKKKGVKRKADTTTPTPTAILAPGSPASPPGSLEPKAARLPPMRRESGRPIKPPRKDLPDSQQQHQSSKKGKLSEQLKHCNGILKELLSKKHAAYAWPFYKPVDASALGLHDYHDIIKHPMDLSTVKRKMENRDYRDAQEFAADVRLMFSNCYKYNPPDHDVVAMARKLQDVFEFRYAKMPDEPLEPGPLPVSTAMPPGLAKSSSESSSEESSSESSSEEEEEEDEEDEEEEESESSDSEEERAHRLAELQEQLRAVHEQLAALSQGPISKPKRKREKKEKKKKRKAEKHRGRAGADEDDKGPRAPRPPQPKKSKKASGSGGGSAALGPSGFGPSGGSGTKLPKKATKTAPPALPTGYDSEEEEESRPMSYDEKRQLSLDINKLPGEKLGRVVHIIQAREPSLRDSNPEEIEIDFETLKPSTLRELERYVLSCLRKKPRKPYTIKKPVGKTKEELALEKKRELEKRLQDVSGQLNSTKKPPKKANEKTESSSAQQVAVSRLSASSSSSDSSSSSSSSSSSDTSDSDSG
ASSAY NAME: Inhibition of his9-tagged BRD2-BD2 (unknown origin) preincubated for 30 mins followed by addition of biotinylated peptide and measured after 30 mins by Alphascreen assay
PROPERTY: IC50

Cc1ccc(C(C)C)cc1Oc1nccc(-c2c(-c3ccc(C(F)(F)F)cc3)ncn2C2CCN(CCO)CC2)n1 : > 10 µM

Asked: Entry CC(=O)Nc1c(F)cc(C(=O)N[C@H]2CC[C@H](O)CC2)cc1O[C@@H](C)c1ccccc1 has what IC50?
Given back: 0.049 µM

Asked: # get_value(readout='IC50', item= O=C(Nc1ccc(C(F)(F)F)cc1)Nc1ccc(S(=O)(=O)N2CCC[C@H]2CN2CCOCC2)cc1 )
Given back: > 50 µM

---

Test system: Mus musculus
ASSAY NAME: Antiinflammatory activity against LPS-induced C57BL/6J mouse model assessed as reduction in Cxcl1 expression at 30 mg/kg, po preincubated for 1 hr followed by LPS stimulation and measured after 8 hrs by qPCR analysis
Type: functional, organism-based
MEASUREMENT SETUP: time 9.0 hrs
The source made the active and inactive calls. The rule behind the calls is not given here.
PROPERTY: Activity

COc1cc2c(cc1-c1c(C)noc1C)ncc1[nH]c(=O)n([C@H](C)c3ccccn3)c12 : Active
Cc1ccc(C(C)C)cc1Oc1nccc(-c2c(-c3ccc(C(F)(F)F)cc3)ncn2C2CCNCC2)n1 : Active
